target: T1, extracellular domain of rhesus monkey BCMA (rhesus monkey, UniProt F7FFA0 1-53); test: Octet BLI; Fab 200 nM
T1 construct: extracellular domain; also called RhBCMA
T1 sequence (F7FFA0 entry or part of it): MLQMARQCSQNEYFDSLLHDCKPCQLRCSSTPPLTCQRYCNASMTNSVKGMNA
Parameter: pKd. Scope: all listed entries.
Entry type: numeric. Quantity: pKd, the -log10 of concentration in molar units.

binder | pKd
AB200-(2Vk31)_R2-VH-v47 (Fab, V domains shown) VH: QVQLVQSGAEVKKPGSSVKVSCKASGGTYSNYWIHWVRQAPGQGLEWMGATYRIHSTTYYNEKFKSRVTITADKSTSTAYMELSSLRSEDTAVYYCARGAIFHGYDVIDNWGQGTLVTVSS VL: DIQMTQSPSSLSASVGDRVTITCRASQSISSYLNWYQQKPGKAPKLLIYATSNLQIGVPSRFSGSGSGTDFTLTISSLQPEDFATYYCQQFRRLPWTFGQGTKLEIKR | 7.80

[ask] pKd for AB200-(2Vk31)_R2-VH-v25 (Fab, V domains shown) VH: QVQLVQSGAEVKKPGSSVKVSCKASGGTFSNYWIHWVRQAPGQGLEWMGATYRSHSTTNYNQKFKSRVTITADKSTSTAYMELSSLRSEDTAVYYCARGAIYHGFDVIDNWGQGTLVTVSS VL: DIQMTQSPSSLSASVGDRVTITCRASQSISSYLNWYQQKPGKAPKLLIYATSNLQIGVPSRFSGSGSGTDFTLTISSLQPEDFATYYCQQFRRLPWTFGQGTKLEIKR ?
[reply] 7.24

[ask] Proceed to AB200-(2Vk31)_R2-VH-v33 (Fab, V domains shown) VH: QVQLVQSGAEVKKPGSSVKVSCKASGGTFSNYWIHWVRQAPGQGLEWMGATYRSHSDTNYNEKFKSRVTITADKSTSTAYMELSSLRSEDTAVYYCARGAIYHGYDVIENWGQGTLVTVSS VL: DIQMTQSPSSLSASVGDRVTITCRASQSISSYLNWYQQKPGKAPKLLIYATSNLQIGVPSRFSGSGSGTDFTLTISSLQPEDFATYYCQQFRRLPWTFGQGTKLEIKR
[reply] 7.30
